Origin of values: ChEMBL document CHEMBL1143807

biological target: Peroxisome proliferator-activated receptor alpha (Homo sapiens, UniProt Q07869); experiment: Agonist activity at human PPARalpha in HepG2 cells by PPAR-GAL4 transactivation assay; type: functional, cell-based
Sequence (Q07869 whole entry, the tested form may be a part): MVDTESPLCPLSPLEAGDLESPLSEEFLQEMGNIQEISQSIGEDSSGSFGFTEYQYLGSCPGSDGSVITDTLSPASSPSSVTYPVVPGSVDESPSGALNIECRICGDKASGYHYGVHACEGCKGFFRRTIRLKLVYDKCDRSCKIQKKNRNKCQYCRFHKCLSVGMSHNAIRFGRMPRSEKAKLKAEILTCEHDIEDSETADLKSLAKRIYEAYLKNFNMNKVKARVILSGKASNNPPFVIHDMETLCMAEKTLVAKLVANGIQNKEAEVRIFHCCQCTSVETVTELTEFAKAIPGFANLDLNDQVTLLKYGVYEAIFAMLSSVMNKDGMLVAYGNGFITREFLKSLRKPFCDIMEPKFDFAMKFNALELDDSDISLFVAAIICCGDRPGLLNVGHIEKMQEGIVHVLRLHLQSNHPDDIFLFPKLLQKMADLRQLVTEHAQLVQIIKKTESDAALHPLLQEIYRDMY
experimental endpoint: EC50 (µM)

Some solved cases for reference:
[[record]]
compound = "CCO/N=C(\\C)C(Cc1ccc(OCCc2nc(-c3ccccc3)oc2C)cc1)C(=O)O (centres undefined)"
experimental_endpoint = "EC50"
numeric_result = 0.012

[[record]]
compound = "CCO/N=C(\\C)C(Cc1ccc(OCc2nc(-c3ccccc3)oc2C)cc1)C(=O)O (centres undefined)"
experimental_endpoint = "EC50"
numeric_result = 0.091


(P) CCCO/N=C(\C)C(Cc1ccc(OCc2nc(-c3ccc(F)cc3)oc2C)cc1)C(=O)O (centres undefined)
(Q) CC/C(=N\OC)C(Cc1ccc(OCCc2nc(-c3ccccc3)oc2C)cc1)C(=O)O (centres undefined)
Problem: Lower value for measured EC50? Options: P , Q Give the chosen item's label as your response.
Solution: P
(P: 0.0117 µM, Q: 0.032 µM)
